Data provenance: a melting point compilation (Tetko et al.; mined from patent text by program, amines drawn as free bases though some values may be those of a salt)

melting point overview

Examples from the recorded data:
> print(dat)
                                   compound         metric         result
1      COc1nc2c(Cl)c(Cl)c(Cl)c(Cl)c2n1COCCO  melting point         139 °C
2              COC(=O)c1ccc(NC(=O)NCCCl)cc1  melting point  163 to 165 °C
3  CCOC1CN2CCC1CC2 (configuration not stated)  melting point    96 to 98 °C
4                    CN(C)Cc1c[nH]c2ncccc12  melting point  161 to 162 °C
5         CN1Cc2c(C#N)ncn2-c2cccc(Cl)c2C1=O  melting point  238 to 240 °C
6  CN1CCC(NC(=O)c2cc(Cl)cc3oc(-c4ccccc4)nc23)CC1  melting point  170 to 172 °C
7                Cc1ccc(OC(=O)N2CCCC2=O)cc1  melting point  101 to 102 °C
8                        CCOc1n[nH]c(=O)n1C  melting point         126 °C

Query :: # melting point lookup, item CCOCc1nc2c(N)nc3c(c2n1CCCCS(=O)(=O)N(C)C)CCCC3
Result :: 165 to 167 °C

Query :: # melting point lookup, item CN1C(=O)C2C3CCC(CC3)C2(c2ccc(Cl)c(Cl)c2)C1=O (configuration not stated)
Result :: 126 to 134 °C

Query :: # melting point lookup, item CC(=O)N(C1=C(NC2CC2)C(=O)c2c(cnn2C)C1=O)C1CC1
Result :: 75 to 78 °C

Query :: # melting point lookup, item CCc1nc2cc(C)c(Cl)nc2n1-c1ccc(CCNC(=O)NS(=O)(=O)c2ccc(C)cc2)cc1
Result :: 205 to 206 °C
